Test system: Mycobacterium tuberculosis
Test: Cornell M. t heat shock assay; also: in the data most compounds retested in dose-response had high values
Type: functional, organism-based
Parameters: dose or concentration left out as unconfirmed
The campaign covered roughly 69,000 compounds. About 950 (1.4%) showed an effect of 50% or more. The entries come from a sample that favours strong results as a whole.
measured.endpoint: Percent Effect (%)
Number in %, nothing else.

The examples below pair each entry with its known result.
[[record]]
compound = "Cc1csc(C(Cc2ccsc2)NC(=O)CN(C)Cc2ccccn2)n1.Cl (centres undefined)"
measured_target = "Mycobacterium tuberculosis"
measured_endpoint = "Percent Effect"
display_unit = "%"
measurement = 82.59

[[record]]
compound = "O=C(CC1CC1)N1CCC2(COCc3cnc(N4CCOCC4)nc32)C1 (centres undefined)"
measured_target = "Mycobacterium tuberculosis"
measured_endpoint = "Percent Effect"
display_unit = "%"
measurement = 6.453

[[record]]
compound = "COCc1ncn2c1CN(C(=O)c1cccc3cccnc13)CC2.O=C(O)C(F)(F)F"
measured_target = "Mycobacterium tuberculosis"
measured_endpoint = "Percent Effect"
display_unit = "%"
measurement = -14.48

[[record]]
compound = "CNC(=O)c1cc2c(nc1N(C)C)CCN(c1ncc(C)cn1)CC2.O=C(O)C(F)(F)F"
measured_target = "Mycobacterium tuberculosis"
measured_endpoint = "Percent Effect"
display_unit = "%"
measurement = 38.06


Data request: Give Percent Effect for O=C(O)C(F)(F)F.O=C(O)C(F)(F)F.O=C1[C@@H]2CCN(Cc3ccoc3)C[C@@H]2OCCN1Cc1cccnc1 tested on Mycobacterium tuberculosis.
Data returned: -189.5

Data request: Give Percent Effect for this entry on Mycobacterium tuberculosis: CCc1cc(CN2C[C@H]3CC[C@@H]2CN(C2Cc4ccccc4C2)C3)on1
Data returned: 30.93

Data request: State Percent Effect on Mycobacterium tuberculosis. Entry: O=C(C[C@@H]1COC[C@H]2CN(CC3CC3)C[C@@H]12)NCc1cccnc1.O=C(O)C(F)(F)F.O=C(O)C(F)(F)F
Data returned: 9.594

Data request: State recorded Percent Effect with Mycobacterium tuberculosis, entry CN(CC(=O)NC(Cc1ccsc1)c1cccnc1)Cc1ccccn1.Cl (centres undefined) , no comment.
Data returned: -24.9

Data request: Retrieve Percent Effect on Mycobacterium tuberculosis; query Cc1csc(C(Cc2ccsc2)NC(=O)Cn2cccnc2=O)n1 (centres undefined)
Data returned: -16.84

----------
Here, each record is paired with measured Percent Effect data.
System: Mycobacterium tuberculosis
Experiment: Cornell M. t heat shock assay; also: in the data most compounds retested in dose-response had high values
Type: functional, organism-based
Design: dose or concentration left out as unconfirmed
Among all 69,000 compounds or so, about 950 (1.4%) showed an effect of 50% or more. This excerpt belongs to a sample that is enriched for strong results.
Value expressed in %; do not type the unit.

Data request: Name the recorded Percent Effect of CCc1cnc(CN(C)C2CCN(CCc3ccccn3)C2)o1 (stereo not given) , assay system Mycobacterium tuberculosis.
Data returned: 105.9

Data request: Give Percent Effect for Cc1ccc(C(=O)N2CCc3c(CN4CCCC4)nn(C)c3C2)cc1C.O=C(O)C(F)(F)F tested on Mycobacterium tuberculosis.
Data returned: -28.38

Data request: // output Percent Effect; input CCc1cnc(CN(C)C2CCN(CC(=O)Nc3cc(C)on3)C2)o1 (stereo not given) ; system Mycobacterium tuberculosis
Data returned: -19.35

Data request: Name the value of Percent Effect reported for O=C1c2cnc(N3CCCC3)nc2CN1CCc1ccc(Cl)cc1 when tested on Mycobacterium tuberculosis.
Data returned: 5.842

Data request: Fill: Percent Effect (Mycobacterium tuberculosis) for this compound Cc1nc(COCC2CN(C(N)=O)Cc3nccn3C2)cs1.O=C(O)C(F)(F)F (stereo not given)
Data returned: -0.7889

Data request: Please look at Cc1ccc(CN2CCC3(CC2)CN(c2cnn(C)c2)C(=O)CO3)o1.O=C(O)C(F)(F)F and tell me its recorded Percent Effect on Mycobacterium tuberculosis.
Data returned: -7.35

Data request: Jot down Percent Effect (Mycobacterium tuberculosis) of Cc1nn(C)c2c(=O)n(CC(=O)NCc3ccccc3Cl)ccc12 .
Data returned: -7.047

Data request: Answer with Percent Effect of O=C(O)C(F)(F)F.O=C(c1cc[nH]n1)N1CCc2onc(COc3cccnc3)c2C1 measured for Mycobacterium tuberculosis.
Data returned: 4.696

Data request: Find the measured Percent Effect of CCc1cnc(CN(C)C2CCN(CCc3cccs3)C2)o1 (stereo not given) with Mycobacterium tuberculosis as test system.
Data returned: -5.267

Data request: Output reported Percent Effect of the compound CN1CCc2cc(C(=O)N(C)C)c(NCC3CC3)nc2CC1.O=C(O)C(F)(F)F.O=C(O)C(F)(F)F on Mycobacterium tuberculosis.
Data returned: -30.07

----------
System: Mycobacterium tuberculosis
Assay: Cornell M. t heat shock assay; also: in the data most compounds retested in dose-response had high values
Format: functional, organism-based
Design: dose or concentration left out as unconfirmed
The whole screen tested about 69,000 compounds, of which about 950 (1.4%) showed an effect of 50% or more. Many of the other results were omitted from the sample, so strong results are more common in it than they were.
measured.endpoint: Percent Effect (%)
Field: numeric (%). Do not append units.

Illustrative cases are given below, each with its answer.
[[record]]
compound = "CCOC(=O)N1CCC(Nc2cc(CC)nc3c(C)c(C)nn23)CC1"
measurement = -7.891

[[record]]
compound = "Cc1[nH]ccc1C(=O)N1CCCC(c2nccn2Cc2cscn2)C1 (stereo not given)"
measurement = -1.058

[[record]]
compound = "CCC(C)Oc1ccc(CNCCNS(C)(=O)=O)cc1Cl (stereo not given)"
measurement = 14.23

[[record]]
compound = "COc1ncccc1C(=O)N1CC[C@]2(C[C@@H](Oc3cccnc3)CO2)C1.O=C(O)C(F)(F)F.O=C(O)C(F)(F)F"
measurement = -28

[[record]]
compound = "O=C(O)C(F)(F)F.O=C(c1cscn1)N1CC[C@]2(C[C@@H](OCCN3CCCC3)CO2)C1"
measurement = 0.0126

[[record]]
compound = "CC(C)Cc1cc(C(=O)NC(C)(C)c2nnc(N)s2)n(C)n1"
measurement = 18.34


Data request: Provide one value: measured Percent Effect of CCC(C)Oc1ccc(CNCCNC(C)=O)cc1Cl (stereo not given)
Data returned: -0.254

Data request: Find the measured Percent Effect of Cl.Cn1nc(C2CCN(C(=O)CCN3CCOCC3)CC2)c2cccnc21 and report it.
Data returned: 0.9946

Data request: Retrieve Percent Effect measured for CCC(=O)N1C[C@@H]2CCN(c3cnccn3)C[C@@H]2C1.O=C(O)C(F)(F)F and print it.
Data returned: -28.75

Data request: Read off the recorded Percent Effect for Cl.c1cnc2[nH]c(C3CCCNC3)c(CN3CCCOCC3)c2c1 (stereo not given)
Data returned: -14.8

----------
Test system: Mycobacterium tuberculosis
Assay: Cornell M. t heat shock assay; also: in the data most compounds retested in dose-response had high values
Type: functional, organism-based
Parameters: dose or concentration left out as unconfirmed
The whole screen tested about 69,000 compounds, of which about 950 (1.4%) showed an effect of 50% or more. This is one part of a sample in which strong results are shown more often than they occur.
Each record here notes measured Percent Effect.

Below, 10 molecules whose answers are already recorded.
[[record]]
molecule = "Cc1sc2nc(CCN)nc(N(CCN(C)C)CC3CCCO3)c2c1C (stereo unspecified)"
measured_target = "Mycobacterium tuberculosis"
measurement = "-25.67%"

[[record]]
molecule = "COc1coc(C(=O)Nc2nc(C)cs2)cc1=O"
measured_target = "Mycobacterium tuberculosis"
measurement = "66.21%"

[[record]]
molecule = "Cc1ccc(Cl)cc1N1CCC(CNC(=O)CCn2ccnc2)C1 (stereo unspecified)"
measured_target = "Mycobacterium tuberculosis"
measurement = "172.3%"

[[record]]
molecule = "CC(C)c1cc2c(s1)NC(c1ccccc1)NC2=O (stereo unspecified)"
measured_target = "Mycobacterium tuberculosis"
measurement = "16.99%"

[[record]]
molecule = "CCN(CCN(C)C)c1nc(CCN)nc2sc(C)c(C)c12"
measured_target = "Mycobacterium tuberculosis"
measurement = "91.54%"

[[record]]
molecule = "Cc1noc(NCc2cc(F)ccc2F)n1"
measured_target = "Mycobacterium tuberculosis"
measurement = "-3.185%"

[[record]]
molecule = "Cc1ccc(Cl)cc1N1CCC(CNC(=O)CCn2ccnn2)C1 (stereo unspecified)"
measured_target = "Mycobacterium tuberculosis"
measurement = "62.44%"

[[record]]
molecule = "Cc1cnn(CC(=O)NCC2CCN(c3cc(Cl)ccc3C)C2)c1 (stereo unspecified)"
measured_target = "Mycobacterium tuberculosis"
measurement = "0.4801%"

[[record]]
molecule = "CCC(CNC(=O)c1ccccn1)N1CCc2ccccc2C1 (stereo unspecified)"
measured_target = "Mycobacterium tuberculosis"
measurement = "64.91%"

[[record]]
molecule = "Cc1nc(C(C)(C)NC(=O)Nc2ccc(C#N)cc2)no1"
measured_target = "Mycobacterium tuberculosis"
measurement = "-15.18%"


# evaluate next
Data request: Complete the entry with Percent Effect for CC(C)N(C)Cc1nnn2c1CN(Cc1cccnc1)CCC2.O=C(O)C(F)(F)F.O=C(O)C(F)(F)F.O=C(O)C(F)(F)F
Data returned: -0.7766%
